Literature survey of IC50 (system: Serine/threonine-protein kinase B-raf (Homo sapiens)).
Sequence (P15056 whole entry): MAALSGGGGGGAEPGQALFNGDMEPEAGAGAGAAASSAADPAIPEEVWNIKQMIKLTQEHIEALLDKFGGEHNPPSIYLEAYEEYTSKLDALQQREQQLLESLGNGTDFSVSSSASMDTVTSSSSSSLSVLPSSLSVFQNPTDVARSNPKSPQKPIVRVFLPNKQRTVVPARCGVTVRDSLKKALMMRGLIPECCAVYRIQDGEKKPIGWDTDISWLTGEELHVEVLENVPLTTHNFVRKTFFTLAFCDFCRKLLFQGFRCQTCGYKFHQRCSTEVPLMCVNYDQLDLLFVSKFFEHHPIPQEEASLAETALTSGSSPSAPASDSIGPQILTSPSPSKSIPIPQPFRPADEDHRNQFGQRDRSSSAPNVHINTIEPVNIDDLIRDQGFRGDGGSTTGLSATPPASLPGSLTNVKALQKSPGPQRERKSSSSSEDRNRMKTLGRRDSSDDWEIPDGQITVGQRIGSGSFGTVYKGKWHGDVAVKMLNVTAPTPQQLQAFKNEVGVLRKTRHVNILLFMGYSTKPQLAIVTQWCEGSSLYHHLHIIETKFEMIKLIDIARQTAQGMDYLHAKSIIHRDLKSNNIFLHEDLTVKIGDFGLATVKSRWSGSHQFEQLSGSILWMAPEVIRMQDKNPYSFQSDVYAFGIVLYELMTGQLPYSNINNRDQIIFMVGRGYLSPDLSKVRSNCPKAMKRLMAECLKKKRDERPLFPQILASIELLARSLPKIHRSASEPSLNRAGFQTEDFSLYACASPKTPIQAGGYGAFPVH
Report as a plain number; the unit nM is understood.

Please indicate recorded IC50 of COc1cccc(-c2nc3sccn3c2-c2ccnc(NCCN3CCCN(C)S3(=O)=O)n2)c1 measured with Serine/threonine-protein kinase B-raf (Homo sapiens). 8.26

Please indicate recorded IC50 of Nc1ncc(-c2cccnc2)c2scc(-c3cccc(NC(=O)Nc4ccc(OCc5ccccc5)cc4)c3)c12 measured with Serine/threonine-protein kinase B-raf (Homo sapiens). 933

Please indicate recorded IC50 of CC(=O)c1ccc(Nc2ccnc(SCC(=O)c3ccc(Cl)cc3)n2)cc1 measured with Serine/threonine-protein kinase B-raf (Homo sapiens). 640

Please indicate recorded IC50 of Nc1ncc(-c2cccnc2)c2scc(-c3cccc(NC(=O)Cc4cccs4)c3)c12 measured with Serine/threonine-protein kinase B-raf (Homo sapiens). 45

Please indicate recorded IC50 of COc1cc2ncnc(Nc3cccc(NC(=O)Nc4ccc(F)c(Cl)c4)c3)c2cc1OCCCN1CCOCC1 measured with Serine/threonine-protein kinase B-raf (Homo sapiens). 31

Please indicate recorded IC50 of CN1C[C@@H]2C[C@H]1CN2c1ccc(-c2ccnc3c(-c4ccc(F)c5[nH]ncc45)c(-c4ccncc4)nn23)cc1 measured with Serine/threonine-protein kinase B-raf (Homo sapiens). 0.5

Please indicate recorded IC50 of Oc1c(C(Nc2cccnc2)c2ccsc2)ccc2cccnc12 (stereo not given) measured with Serine/threonine-protein kinase B-raf (Homo sapiens). 2000

Please indicate recorded IC50 of CNc1nccc(-c2[nH]c(C3CC3)nc2-c2cccc(NC(=O)Nc3ccc(Cl)c(C(F)(F)F)c3)c2)n1 measured with Serine/threonine-protein kinase B-raf (Homo sapiens). 21

Please indicate recorded IC50 of O=S(=O)(Nc1ccc(F)c(Nc2ncccc2-c2ncnc3[nH]cnc23)c1F)c1ccccc1F measured with Serine/threonine-protein kinase B-raf (Homo sapiens). 10

Please indicate recorded IC50 of Cn1c(=O)[nH]c(=O)c2c1nc(N/N=C\c1ccc([N+](=O)[O-])cc1)n2Cc1ccccc1 measured with Serine/threonine-protein kinase B-raf (Homo sapiens). 57900

Please indicate recorded IC50 of O=S(=O)(NCCNc1nccc(-c2c(-c3ccccc3)nc3sccn23)n1)c1ccc(O)cc1 measured with Serine/threonine-protein kinase B-raf (Homo sapiens). 97

Please indicate recorded IC50 of CNC(=O)c1cc(Oc2ccc(C(=O)/C=C/c3cccc(Br)c3)cc2)ccn1 measured with Serine/threonine-protein kinase B-raf (Homo sapiens). 2900

Please indicate recorded IC50 of CCn1cc(-c2ccnc3[nH]cc(Br)c23)c(-c2cccc(NC(=O)Nc3ccccc3)c2)n1 measured with Serine/threonine-protein kinase B-raf (Homo sapiens). 79.4

Please indicate recorded IC50 of O=C(Nc1cccc(-c2ccnc3cc(-c4cnc[nH]4)nn23)c1)c1cccc(C(F)(F)F)c1 measured with Serine/threonine-protein kinase B-raf (Homo sapiens). 1600

Please indicate recorded IC50 of O=S(=O)(Nc1ccc(F)c(Nc2ncccc2-c2ncnc3[nH]cnc23)c1F)C1CCOCC1 measured with Serine/threonine-protein kinase B-raf (Homo sapiens). 179

Please indicate recorded IC50 of COc1ccc2ncnc(Oc3ccc(NC(=O)Nc4cccc(C(F)(F)F)c4)cc3)c2c1 measured with Serine/threonine-protein kinase B-raf (Homo sapiens). 400
